B1: Myocardin, residues 363 to 406; numbered along this chain, Q8IZQ8 (parent)
chain: KPGPLPPNLDDLKVSELRQQLRIRGLPVSGTKTALMDRLRPFQD

Variants of: B1
Assay: abundance fitness (aPCA) (normalised: wild type 0, dead -1); higher = more abundant; growth selection in yeast, the domain comes from the species named
Conditions: Homo sapiens
The following variants are listed with their measured abundance fitness values.
Value Kind: abundance fitness

KPGPLPPNLDDLKVSELRQSLRIRGLPVSGTKTALMDRLRPFQD [Q20S] : -0.711
KPGPLPPNLDDLKVSELRQQLRIRGLPVSGTKKALMDRLRPFQD [T33K] : 0.016
KTGPLPPNLDDLKVSELRQQLRIRGLPVSGTKTALMDRLRPFQD [P2T] : -0.016
KPGPLPPNLDDLKVSELRQQLRIRGLPVSGTSTALMDRLRPFQD [K32S] : -0.905
KPGPLPPNCDDLKVSELRQQLRIRGLPVSGTKTALMDRLRPFQD [L9C] : -0.371
KPGPLPPNLDDLKVSELRQQLRVRGLPVSGTKTALMDRLRPFQD [I23V] : -0.092
KPGPLPMNLDDLKVSELRQQLRIRGLPVSGTKTALMDRLRPFQD [P7M] : 0.239
CPGPLPPNLDDLKVSELRQQLRIRGLPVSGTKTALMDRLRPFQD [K1C] : -0.286
KPGPLPPNLDDLKVSELVQQLRIRGLPVSGTKTALMDRLRPFQD [R18V] : -0.312
KPGPLPPNLDDLKVSELRQQLRIRTLPVSGTKTALMDRLRPFQD [G25T] : -0.56
KYGPLPPNLDDLKVSELRQQLRIRGLPVSGTKTALMDRLRPFQD [P2Y] : 0.136
KPGPLPPNLDDLKVSELRQQLRIRGTPVSGTKTALMDRLRPFQD [L26T] : -0.805
